Parameter: log10 MBEC. Scope: all listed entries.
system: Escherichia coli JM109 planktonic and biofilm bacteria; format: cell-based; details: E. coli JM109 biofilm; LB+B1; 24 h exposure
Readout Name: log10 MBEC (log10 of the value in mM)

| Compound | log10 MBEC |
| --- | --- |
| O=[N+]([O-])[O-].[Ag+] [Ag^+, silver nitrate] | -1.15 |
| O=[Te]([O-])[O-].[K+].[K+] [TeO3^2−, potassium tellurite] | -1.85 |
| O=S(=O)([O-])[O-].[Mn+2] [Mn^2+, manganous sulfate] | 2.30 |
| O=[Te](=O)([O-])[O-].[K+].[K+] [TeO4^2−, potassium tellurate] | -0.38 |
| [Cl][Cd][Cl] [Cd^2+, Cadmium chloride] | 0.36 |
| O=S(=O)([O-])[O-].[Zn+2] [Zn^2+, zinc sulphate] | 1.49 |
| [Cl][Hg][Cl] [Hg^2+, mercuric chloride] | -1.15 |

###

test system: Pseudomonas aeruginosa ATCC 27853 planktonic and biofilm bacteria; format: cell-based; conditions: P. aeruginosa ATCC 27853 biofilm; LB+B1; 24 h exposure
Readout Name: MBEC (mM)

| Molecule | Tested Target | Readout Name | Readout Relation | Endpoint Value |
| --- | --- | --- | --- | --- |
| O.O.O.O.O.O=S(=O)([O-])[O-].[Cu+2] [Cu^2+, cupric sulphate] | Pseudomonas aeruginosa ATCC 27853 planktonic and biofilm bacteria | MBEC | = | 14 |
| O=[Te]([O-])[O-].[K+].[K+] | Pseudomonas aeruginosa ATCC 27853 planktonic and biofilm bacteria | MBEC | = | 4.4 |
| [Cl][Cd][Cl] [Cd^2+, Cadmium chloride] | Pseudomonas aeruginosa ATCC 27853 planktonic and biofilm bacteria | MBEC | = | 36 |
| O=[N+]([O-])[O-].[Ag+] [Ag^+, silver nitrate] | Pseudomonas aeruginosa ATCC 27853 planktonic and biofilm bacteria | MBEC | = | 0.40 |
| [Cl][Hg][Cl] [Hg^2+, mercuric chloride] | Pseudomonas aeruginosa ATCC 27853 planktonic and biofilm bacteria | MBEC | = | 0.43 |
| O=S(=O)([O-])[O-].[Zn+2] [Zn^2+, zinc sulphate] | Pseudomonas aeruginosa ATCC 27853 planktonic and biofilm bacteria | MBEC | > | 125 |
| O=[Te](=O)([O-])[O-].[K+].[K+] [TeO4^2−, potassium tellurate] | Pseudomonas aeruginosa ATCC 27853 planktonic and biofilm bacteria | MBEC | > | 1.3 |
| O=S(=O)([O-])[O-].[Mn+2] [Mn^2+, manganous sulfate] | Pseudomonas aeruginosa ATCC 27853 planktonic and biofilm bacteria | MBEC | > | 149 |
| [Cl][Sn][Cl] [Sn^2+, stannous chloride] | Pseudomonas aeruginosa ATCC 27853 planktonic and biofilm bacteria | MBEC | = | 17 |
| O=[Se](O)O | Pseudomonas aeruginosa ATCC 27853 planktonic and biofilm bacteria | MBEC | = | 28 |
| [Na+].[Na+].[O]=[Mo](=[O])([O-])[O-] [MoO4^2−, sodium molybdate] | Pseudomonas aeruginosa ATCC 27853 planktonic and biofilm bacteria | MBEC | > | 102 |
| [Na+].[Na+].[O]=[W](=[O])([O-])[O-] [WO4^2−, sodium tungstate] | Pseudomonas aeruginosa ATCC 27853 planktonic and biofilm bacteria | MBEC | > | 66 |
